# System: PC-3 prostate
# assay summary: NCI tumour cell line growth inhibition, 48 h
Answer each item with its documented TGI.

Exercise: Recorded TGI for CCN(CC)c1ccc(/C=C/C2=NN(c3cccc(S(=O)(=O)O)c3)C3(C2)C(Cl)C(=O)N3c2nc3ccccc3s2)cc1 (centres undefined) with PC-3 prostate, please?
Solution: 25.1 µM

Exercise: Consider next the molecule O=C(Oc1ccccc1)c1cc(O)c(O)c(O)c1 in the same way.
Solution: > 100 µM

Exercise: Consider next the molecule CCOC(=O)[C@H]1C[C@@H](C(=O)c2ccccc2)N2N=C(c3ccc(Br)cc3)C=C[C@H]12 in the same way.
Solution: > 100 µM

Exercise: Consider next the molecule CCOP(=O)(CS(C)=O)O[C@@H]1C[C@H](C)CC[C@H]1C(C)C (some centres undefined) in the same way.
Solution: 19.7 µM

Exercise: Consider next the molecule N#Cc1c(-c2ccccc2)c(C#N)c(=O)n(NS(=O)(=O)c2ccccc2)c1O in the same way.
Solution: > 100 µM

Exercise: Consider next the molecule COc1ccc(C2=NNC(c3ccc(-c4ccc(OC)cc4[N+](=O)[O-])o3)C2)cc1 (centres undefined) in the same way.
Solution: > 100 µM

Exercise: Consider next the molecule CCN(CC)c1ccc(/C=N/NC(=O)c2ccc(Nc3ccnc(C(F)(F)F)c3)cc2)c(O)c1 in the same way.
Solution: > 100 µM

Exercise: Consider next the molecule O=C(Cc1ccccc1)N/N=C(/CCN1CCCC1)CC(c1ccccc1)c1c(O)c2ccccc2oc1=O (centres undefined) in the same way.
Solution: > 100 µM

Exercise: Consider next the molecule O=C(CNC(=O)c1cccc2ccccc12)Nc1ccccc1Oc1cccc(O)c1 in the same way.
Solution: > 25 µM

* * *

# System: SNB-19 CNS
# assay summary: NCI tumour cell line growth inhibition, 48 h
metric: TGI

Exercise: So what's the measured TGI for this one? C1=CCN(c2ccccc2)CC1
Solution: > 100 µM

Exercise: Consider next the compound Cc1c(C(=O)/C=C/c2ccc(O)cc2)nnn1-c1ccnc2c(C(F)(F)F)cccc12 in the same way.
Solution: > 100 µM

Exercise: Consider next the compound COc1ccc2[nH]c3c(cnn4cnnc34)c2c1 in the same way.
Solution: > 100 µM

Exercise: Consider next the compound S=C(Nc1ccccc1)c1ccccn1 in the same way.
Solution: > 100 µM

Exercise: Consider next the compound CN(C)c1ccc(C2CC(=O)CC(c3ccc(N(C)C)cc3)C23C(=O)NC(=O)NC3=O)cc1 (configuration not stated) in the same way.
Solution: > 25 µM

Exercise: Consider next the compound O=c1cc(-c2ccc(O)c(O)c2)oc2cc(OC3OC(CO)C(O)C(O)C3O)cc(O)c12 (configuration not stated) in the same way.
Solution: > 100 µM

Exercise: Consider next the compound CC(=O)Nc1c(C)cc(OCC(=O)O)cc1C in the same way.
Solution: > 100 µM

Exercise: Consider next the compound CN(C)c1ccc(C(C#N)N2CCCN(C(C#N)c3ccc(N(C)C)cc3)C2c2ccc(N(C)C)cc2)cc1 (configuration not stated) in the same way.
Solution: > 100 µM

Exercise: Consider next the compound CCN(CC)c1ccc(/C=C/C2=NN(c3cccc(S(=O)(=O)O)c3)C3(C2)C(Cl)C(=O)N3c2nc3ccccc3s2)cc1 (configuration not stated) in the same way.
Solution: 29.7 µM

Exercise: Consider next the compound CC(=O)OCC(OC(C)=O)C(OC(C)=O)C(/C=N/N(C(C)=O)S(=O)(=O)c1ccc(/C=C2\NC(=O)NC2=O)cc1)OC(C)=O (configuration not stated) in the same way.
Solution: > 100 µM

Exercise: Consider next the compound Cn1cnc2c(F)c(Nc3ccc(Br)cc3Cl)c(C(=O)NOCCO)cc21 in the same way.
Solution: > 100 µM

Exercise: Consider next the compound CCOC(=O)c1cc2c(cc1Cl)SC(N(c1ccc(F)cc1)S(=O)(=O)c1ccc(OC)cc1)=NS2(=O)=O in the same way.
Solution: 51.2 µM

Exercise: Consider next the compound Clc1nc(Cl)c2ncn(C/C=C\Cn3cnc4c(Cl)nc(Cl)nc43)c2n1 in the same way.
Solution: 10.1 µM

Exercise: Consider next the compound CCn1c(=O)c2c(=O)[nH][nH]c2c2ccccc21 in the same way.
Solution: > 100 µM

Exercise: Consider next the compound C/C(=N\NC(N)=S)c1ccc2c(c1)OCO2 in the same way.
Solution: > 100 µM

Exercise: Consider next the compound CC1CCC2(OC1)OC1CC3C4CC=C5CC(OC6OC(CO)C(OC7OC(C)C(OC8OC(C)C(O)C(O)C8O)C(O)C7O)C(O)C6OC6OC(C)C(O)C(O)C6O)CCC5(C)C4CCC3(C)C1C2C (configuration not stated) in the same way.
Solution: 2.4 µM

Exercise: Consider next the compound CCCCCCCCCCCCCCCCC(C(=O)O)C(O)(CC(=O)O)C(=O)O (configuration not stated) in the same way.
Solution: 79.3 µM
